# Tested on: leukotriene synthesis in homogenized rat basophil leukemia cells
# Test Method Notes: cell free leukotriene biosynthesis system (homogenized rat basophil leukemia cells, radioimmunoassay)
# Assay type: biochemical
# Conditions: synthesis initiated by arachidonate; drug preincubated five minutes; read-out: IC50, leukotriene synthesis inhibition

Smiles Repr	Measure Unit	IC50
CC(C)(C)c1cc(C(=O)c2ccc(C(=O)O)s2)cc(C(C)(C)C)c1O	µM	15

Where these numbers come from: patent US4677113A
